assay-overview: Solubility measurements in several solvent systems
Format: physicochemical
reported-conditions: water, deionized water; read-out: Solubility, Water
quantity-measured: solubility (mg/mL)
Express it in mg/mL; write the number only.

Look up solubility for this compound: COC(=O)[C@H](Cc1ccccc1)NC(=O)[C@H](CC(=O)O)NCCC(C)(C)C [Neotame Monohydrate, reference compound]
12.8
